Values from ChEMBL document CHEMBL1125932

Test system: ESM
Experiment: Concentration required to inhibit TK-HSV-1 ([…]) induced cytopathogenicity in ESM cells by 50%
Type: functional
Conditions: Homo sapiens
Listed below: MIC values for each entry.
Only the number, expressed in µg/mL, is required.

| structure_notation | system_under_test | MIC [µg/mL] |
| --- | --- | --- |
| Nc1nc2c(ncn2COCCO)c(=O)[nH]1 | ESM | 40 |

# evaluate next
Exercise: Value lookup for MIC; key = OCC(CO)OCn1cnc2c(O)n3ccnc3nc21
Solution: 150

* * *

Test system: HEL
Test: Concentration required to inhibit TK-VZV (YSR) induced cytopathogenicity in HEL cells by 50%
Assay type: functional
Settings: Homo sapiens
measure: MIC

Use these answered entries as a reference point.
| compound | value_measured |
| --- | --- |
| CCOC(Cn1c(N)nc2c(ncn2COCCO)c1=O)OCC | > 400 µg/mL |
| Cc1cn2c(O)c3ncn(COC(CO)CO)c3nc2n1 | 50 µg/mL |
| OCC(CO)OCn1cnc2c(O)n3ccnc3nc21 | 300 µg/mL |
| Cc1cn2c(O)c3ncn(C4O[C@H](CO)[C@@H](O)[C@H]4O)c3nc2n1 (some centres undefined) | > 200 µg/mL |
| CCOC(Cn1c(N)nc2c(ncn2COC(CO)CO)c1=O)OCC | > 400 µg/mL |
| OCCOCn1cnc2c(O)n3ccnc3nc21 | > 400 µg/mL |
| Cc1cn2c(O)c3ncn(COCCO)c3nc2n1 | > 400 µg/mL |
| CCOC(Cn1c(N)nc2c(ncn2C2O[C@H](CO)[C@@H](O)[C@H]2O)c1=O)OCC (some centres undefined) | > 200 µg/mL |

Exercise: Fill in the recorded MIC for this compound, with HEL as test system: OC[C@H]1OC(n2cnc3c(O)n4ccnc4nc32)[C@H](O)[C@@H]1O (some centres undefined)
Solution: > 400 µg/mL
